Quick reference for kcat among some variants
B1: glmS ribozyme (parent)
chain: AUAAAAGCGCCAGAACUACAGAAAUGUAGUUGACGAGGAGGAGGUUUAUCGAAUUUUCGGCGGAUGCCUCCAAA

# Variants of: B1
# assayDetails: kcat; higher = faster cleavage; RNA array
# assayConditions: with glucosamine-6-phosphate
This sample holds only a part of the variants without activity.
assayReadout: kcat (s⁻¹)

change | assayReadout | relationSymbol | measuredValue
A39C C58G | kcat | = | 1.1e-05
U54G U65C | kcat | = | 0.00111
A39G A52G | kcat | = | 0.00286
U47G U55C | kcat | = | 0.00713
C61A C68U | kcat | = | 1.56e-05
C11A A39U | kcat | = | 0.000122
A64C C68A | kcat | < | 1e-05
U47A A52G | kcat | = | 0.00213
U31A A48G | kcat | = | 2.21e-05
G41U A42G | kcat | = | 0.000998
A42U U65G C68A | kcat | = | 2.17e-05
C10U G60A C71U | kcat | = | 1.14e-05
U31A G32A | kcat | = | 0.00184
A14G C16U G43A C67G | kcat | = | 0.00284
A36U A64C | kcat | < | 1e-05
U65A C70G | kcat | = | 7.88e-05
G41U A52G | kcat | = | 0.000128
G29U A39G | kcat | = | 0.0173
C50G C71U | kcat | = | 0.000123
C16A U65C | kcat | = | 2.42e-05
A15G G59U | kcat | = | 0.000115
A15G G62C U69G | kcat | = | 1.74e-05
C10A C50U | kcat | < | 1e-05
A12U U47G C70G | kcat | = | 0.000218
G32A U55A | kcat | = | 0.00351
A12U G41C | kcat | = | 0.000373
U31C A42G | kcat | = | 0.00894
U57G G66A | kcat | = | 2.15e-05
G29C G38A | kcat | < | 1e-05
U54G U69G | kcat | = | 7.3e-05
G51U C61G | kcat | < | 1e-05
A72C | kcat | = | 0.00605
G38C C67U C70G | kcat | = | 1.59e-05
A33U G66A | kcat | = | 6.76e-05
U49G A53C | kcat | = | 0.000546
G13C U45G | kcat | = | 3.74e-05
G40A A52G | kcat | = | 0.000342
C16A C68U | kcat | = | 9.12e-05
C58A C67A | kcat | = | 0.000182
A33C A48U | kcat | < | 1e-05
C10G C61A | kcat | = | 1.32e-05
A42G G66A U69A | kcat | = | 0.0145
G40U A52G | kcat | = | 0.000217
U65A C71G | kcat | = | 0.000477
A53C U54C | kcat | = | 0.00131
G13C A14U C68U | kcat | = | 1.07e-05
